// values below are reported EC50
Biological target: T1, recombinant human CTGF protein (R&D Systems, SEQ ID NO: 79) (human, UniProt P29279 27-349)
T1 construct: Bought; also called human CTGF/CNN2; huCTGF
T1 sequence: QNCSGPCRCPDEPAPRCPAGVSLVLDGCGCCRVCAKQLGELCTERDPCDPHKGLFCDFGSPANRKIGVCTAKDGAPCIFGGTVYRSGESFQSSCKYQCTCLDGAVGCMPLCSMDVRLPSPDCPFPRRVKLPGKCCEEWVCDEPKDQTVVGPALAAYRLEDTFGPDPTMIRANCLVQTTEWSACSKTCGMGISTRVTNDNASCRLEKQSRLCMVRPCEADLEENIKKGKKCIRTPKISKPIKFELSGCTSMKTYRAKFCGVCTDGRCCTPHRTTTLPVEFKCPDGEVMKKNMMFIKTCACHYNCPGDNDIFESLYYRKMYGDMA
Test: ELISA, coated target
Write the answer as a number in nM, unit excluded.

Completed entries (count: 2):
- Binder: "lipocalin mutein of SEQ ID NO: 3 (designed binder, Parent hNGAL mutein; also called hNGAL mutein) QDSTSDLIPAPPLSKVPLQQNFQDNQFHGKWYVVGRAGNNRLREDKDPPKMWATIYELKEDKSYNVTHVHFMTKKCRYIIDTFVPGSQPGEFTLGAIKSGPGMTSPLVRIVSTNYNQHAMVFFKWVNQNREWFTITLYGRTKELTSELKENFIRFSKSLGLPENHIVFPVPIDQCIDGSAWSHPQFEK"
  Quantitative readout: 6.9
- Binder: "lipocalin mutein of SEQ ID NO: 9 (designed binder, Parent hNGAL mutein; also called hNGAL mutein) QDSTSDLIPAPPLSKVPLQQNFQDNQFHGKWYVVGLAGNKILRIDKQPAKMFATIYELKEDKSYDVTSVRFEARSCSYTIKTFVPGSQPGEFTAGNIKSAPGQTSTLVRVVSTNYNQHAMVFFKHVSQNRETFVITLYGRTKELTSELKENFIRFSKSLGLPENHIVFPVPIDQCIDGSAWSHPQFEK"
  Quantitative readout: 14

// below: EC50 requested for another binder
Inquiry: // returns reported EC50 for input lipocalin mutein of SEQ ID NO: 25 (designed binder, Parent hNGAL mutein; also called hNGAL mutein) QDSTSDLIPAPPLSKVPLQQNFQDNQFHGKWYVVGMAGNFRLREDKDPSKMGATIYELKEDKSYNVTQVQFDDKKCLYVIETFVPGSQPGEFTLGAIKSFPGFTSQLVRVVSTNYNQHAMVFFKKVYQNREVFWITLYGRTKELTSELKENFIRFSKSLGLPENHIVFPVPIDQCIDGSAWSHPQFEK
Reply text: 11
